Data credit: the NIST ThermoML archive (doi:10.1016/j.tca.2006.03.011)

EXPERIMENTAL DETAILS: Molar enthalpy of transition or fusion
TEST SETTINGS: Crystal 1; DSC
Would you mind telling me the reported Molar enthalpy of transition or fusion of each entry?
Kindly answer with a numeric value in kcal/mol, unit omitted.

Query: Dear colleague, I am looking for the recorded Molar enthalpy of transition or fusion of the following compound: c1ccc2ccccc2c1 [naphthalene]
Reply: 4.67

Query: Would you kindly repeat that for CCCCCCCCCCCCCCCCCCCCCCCCCCCCCCCCCCCC [hexatriacontane] ?
Reply: 19.5

Query: Would you kindly repeat that for CCCCCCCCCCCCCCCCCCCC [eicosane] ?
Reply: 16.5

Query: Would you kindly repeat that for CCCCCCCCCCCCCCCCCCCCCCCCC [pentacosane] ?
Reply: 13.3
